Value source: the RNAGym collection of RNA variant scans (doi:10.7554/elife.80360)

B1: HDV Ribozyme (parent)
chain: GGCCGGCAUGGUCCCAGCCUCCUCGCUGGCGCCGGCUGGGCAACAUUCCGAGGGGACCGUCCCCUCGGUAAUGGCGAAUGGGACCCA

- Variants of: B1
- PROTOCOL NOTES: self-cleavage, relative activity (ratio to wild type); higher = more cleavage; co-transcriptional
// classify(record): look up self-cleavage in ranges low group (below 0.1), middle group (0.1 to below 0.5), high group (0.5 or more)

{"columns": ["VARIANT DESCRIPTOR", "DISCRETE LABEL"],
 "data": [
  ["C4U C36A", "low group"],
  ["G6C G11U", "low group"],
  ["C30U C75A", "low group"],
  ["C13U C15G", "middle group"],
  ["C3G C36A", "low group"],
  ["A70G C84A", "high group"],
  ["G28U U47A", "middle group"],
  ["A51C C63U", "high group"],
  ["U9C G82U", "middle group"],
  ["G67A G80A", "middle group"],
  ["G11U U23G", "middle group"],
  ["U69G U79A", "high group"],
  ["U23C G25C", "middle group"],
  ["C21G C49A", "low group"],
  ["C21A G73C", "low group"],
  ["U60A C84U", "high group"],
  ["C49U C61G", "high group"],
  ["A51C C85G", "high group"],
  ["C4G G28U", "low group"],
  ["G6C C57A", "middle group"],
  ["C66G G80C", "low group"],
  ["C18U C62A", "high group"],
  ["G5U C13U", "middle group"],
  ["U12C G74C", "low group"],
  ["U12C C21G", "low group"],
  ["C3U C58A", "high group"],
  ["C19U U37G", "low group"],
  ["C7G C26A", "middle group"],
  ["C15U G40U", "high group"],
  ["C32G A71G", "low group"],
  ["C66A G81A", "middle group"],
  ["U12C U69G", "middle group"],
  ["A8G G40U", "high group"],
  ["A8U C58U", "high group"],
  ["A71C G73C", "middle group"],
  ["U60G C85A", "high group"],
  ["U37G G40A", "middle group"],
  ["C57G C75A", "middle group"],
  ["C30G G73U", "low group"],
  ["A42U C49G", "middle group"],
  ["C14A G39A", "middle group"],
  ["U60C U65G", "high group"],
  ["G6U C13A", "low group"],
  ["C44U C63G", "high group"],
  ["C22U G55A", "high group"]
]}
